- targetOrTestSystem: recombinant His-CHK1 (Homo sapiens)
- Construct: His-CHK1, In House Lot P976, MW ˜30 KDa, stored at −80 °C; fused on or other part: His tag
- Sequence (O14757 1-265 limits assumed): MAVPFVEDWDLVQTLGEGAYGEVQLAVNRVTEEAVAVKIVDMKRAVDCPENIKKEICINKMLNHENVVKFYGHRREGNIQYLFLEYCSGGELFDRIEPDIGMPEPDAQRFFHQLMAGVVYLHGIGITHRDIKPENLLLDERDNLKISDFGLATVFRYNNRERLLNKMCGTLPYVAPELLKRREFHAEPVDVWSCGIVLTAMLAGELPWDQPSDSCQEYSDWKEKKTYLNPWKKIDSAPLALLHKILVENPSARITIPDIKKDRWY
- methodNotes: CHK1 SPA Assay
- conditionLabel: read-out: CHK-1 IC50
Here, each record is paired with measured IC50 data.
measurementName: IC50

INSERT INTO results (compound, targetortestsystem, measurementname, result) VALUES
  ('Cn1cc(-c2cnc3c(Nc4ccc5ncccc5c4)nccn23)cn1', 'recombinant His-CHK1 (Homo sapiens)', 'IC50', '492 nM'),
  ('Cn1cc(-c2cnc3c(Nc4ccc(-n5ccnc5)cc4)nc(C4=CCCNC4)cn23)cn1 [drawing 1440]', 'recombinant His-CHK1 (Homo sapiens)', 'IC50', '97 nM'),
  ('Cn1cc(-c2cnc3c(Nc4ccc(-n5ccnc5)cc4)nc(C4=CCNCC4)cn23)cn1', 'recombinant His-CHK1 (Homo sapiens)', 'IC50', '181 nM'),
  ('Cn1cc(-c2cnc3c(Nc4ccc(-n5ccnc5)cc4)nc(C4=CCCNC4)cn23)cn1 [drawing 1445]', 'recombinant His-CHK1 (Homo sapiens)', 'IC50', '97 nM'),
  ('Cc1cc(Nc2nc(C3CCCNC3)cn3c(-c4cnn(C)c4)cnc23)sc1S(=O)(=O)N(C)C (stereo not drawn)', 'recombinant His-CHK1 (Homo sapiens)', 'IC50', '12 nM'),
  ('Cn1cc(-c2cnc3c(Nc4ccns4)nc(CN)cn23)cn1', 'recombinant His-CHK1 (Homo sapiens)', 'IC50', '17 nM'),
  ('Cc1cc(Nc2nc(C3=CCCNC3)cn3c(-c4cnn(C)c4)cnc23)sc1S(=O)(=O)N(C)C1CC1', 'recombinant His-CHK1 (Homo sapiens)', 'IC50', '18 nM'),
  ('CC(C)c1cnsc1Nc1nc(C2=CCCNC2)cn2c(-c3cnn(C)c3)cnc12', 'recombinant His-CHK1 (Homo sapiens)', 'IC50', '6 nM'),
  ('CCNC(=O)c1sc(Nc2nc(CCN)cn3c(-c4cnn(C)c4)cnc23)cc1C', 'recombinant His-CHK1 (Homo sapiens)', 'IC50', '15 nM');

----------
- targetOrTestSystem: recombinant His-CHK1 (Homo sapiens)
- Construct: His-CHK1, In House Lot P976, MW ˜30 KDa, stored at −80 °C; fused on or other part: His tag
- methodNotes: CHK1 SPA Assay
- conditionLabel: read-out: CHK-1 IC50
- Experimental: An in vitro assay was developed that utilizes recombinant His-CHK1 expressed in the baculovirus expression system as an enzyme source and a biotinylated peptide based on CDC25C as substrate (biotin-[…]). 1) CDC25C Ser 216 C-term Biotinylated peptide substrate (25 mg), stored at −20 °C, Custom Synthesis by Research Genetics: biotin-[…] 2595.4 MW 2) His-CHK1 In House lot P976, 235 ug/mL, stored at −80 °C. 1) Kinase Buffer: 50 mM Tris pH 8.0; 10 mM MgCl2; 1 mM DTT […]
pIC50: −log10 of the molar value.
measurementName: pIC50

INSERT INTO assay_data (compound, measurementname, measurednumber) VALUES
  ('Cc1cc(Nc2nc(C3=CCCNC3)cn3c(-c4cnn(C)c4)cnc23)sc1-c1cnn(C)c1', 'pIC50', 7.72),
  ('Cc1ncc(Nc2nc(C3=CCCNC3)cn3c(-c4cnn(C)c4)cnc23)s1', 'pIC50', 8.10),
  ('Cc1cc(Nc2nc(C3=CCCNC3)cn3c(-c4cnn(C)c4)cnc23)sc1S(=O)(=O)C(C)C', 'pIC50', 8.30),
  ('CNCCc1cn2c(-c3cnn(C)c3)cnc2c(Nc2cc(C)ns2)n1', 'pIC50', 7.89),
  ('Cn1cc(-c2cnc3c(Nc4sncc4C4CCNC4)nccn23)cn1 (centres unmarked)', 'pIC50', 7.64);

----------
- targetOrTestSystem: Cyclin E/CDK2 (Homo sapiens)
- Construct: made in house; host or cells: SF9 cells (baculovirus co-infection)
- methodNotes: CDK2 Assay (Cyclin E/CDK2 in vitro kinase assay)
- Assay type: biochemical
- conditionLabel: read-out: CDK2 IC50
pIC50: −log10 of the molar value.
measurementName: pIC50

INSERT INTO assay_data (compound, measurednumber) VALUES
  ('CCNC(=O)c1sc(Nc2nc(CCN)cn3c(-c4cnn(C)c4)cnc23)cc1C', 4.38),
  ('Cn1cc(-c2cnc3c(Nc4ccns4)nc(CN)cn23)cn1', 6.26),
  ('Cc1cc(Nc2nc(CC3CCNC3)cn3c(-c4cnn(C)c4)cnc23)sc1S(=O)(=O)N(C)C (centres unmarked)', 6.01),
  ('Cc1cc(Nc2nc(C3=CCCNC3)cn3c(-c4cnn(C)c4)cnc23)sc1-c1cnn(C)c1', 5.34),
  ('Cc1cc(Nc2nc(C3CCCNC3)cn3c(-c4cnn(C)c4)cnc23)sn1 (centres unmarked)', 5.96),
  ('Cc1cc(Nc2nc(C3=CCCNC3)cn3c(-c4cnn(C)c4)cnc23)sc1S(=O)(=O)N(C)C1CC1', 4.88),
  ('Cc1cc(Nc2nc(CC3CCNC3)cn3c(-c4cnn(C)c4)cnc23)sn1 (centres unmarked)', 6.22),
  ('CC(C)c1cnsc1Nc1nc(CCN)cn2c(-c3cnn(C)c3)cnc12', 7.89),
  ('Cc1cc(Nc2nc(C3=CCCNC3)cn3c(-c4cnn(C)c4)cnc23)sc1S(C)(=O)=O', 4.93),
  ('Cc1cnsc1Nc1nc(CCCN)cn2c(-c3cnn(C)c3)cnc12', 5.72),
  ('Cc1cc(Nc2nc(C3=CCCNC3)cn3c(-c4cnn(C)c4)cnc23)sc1S(=O)(=O)NCC1CC1', 5.67);

----------
- targetOrTestSystem: recombinant His-CHK1 (Homo sapiens)
- Construct: His-CHK1, In House Lot P976, MW ˜30 KDa, stored at −80 °C; fused on or other part: His tag
- methodNotes: CHK1 SPA Assay
- conditionLabel: read-out: CHK-1 IC50
# label = Met if IC50 < 20 nM else Not met

INSERT INTO results (molecule, targetortestsystem, answerlabel) VALUES
  ('Cc1cc(Nc2nc(C3=CCCNC3)cn3c(-c4cnn(C)c4)cnc23)sc1S(=O)(=O)N1CCC1', 'recombinant His-CHK1 (Homo sapiens)', 'Met'),
  ('Cc1cc(Nc2nc(C3=CCCNC3)cn3c(-c4cnn(C)c4)cnc23)sc1C(N)=O', 'recombinant His-CHK1 (Homo sapiens)', 'Not met'),
  ('Cn1cc(-c2cnc3c(Nc4cc(C5CCNCC5)ns4)nccn23)cn1', 'recombinant His-CHK1 (Homo sapiens)', 'Not met'),
  ('Cc1cc(Nc2nc(CC3CCNC3)cn3c(-c4cnn(C)c4)cnc23)sc1S(=O)(=O)N(C)C (centres unmarked)', 'recombinant His-CHK1 (Homo sapiens)', 'Met'),
  ('Cc1cc(Nc2nc(CC3CCNC3)cn3c(-c4cnn(C)c4)cnc23)sn1 (centres unmarked)', 'recombinant His-CHK1 (Homo sapiens)', 'Met');

----------
- targetOrTestSystem: Cyclin E/CDK2 (Homo sapiens, UniProt P24941)
- Construct: made in house; host or cells: SF9 cells (baculovirus co-infection)
- methodNotes: CDK2 Assay (Cyclin E/CDK2 in vitro kinase assay)
- Assay type: biochemical
- conditionLabel: read-out: CDK2 IC50
Here, each record is paired with measured IC50 data.
measurementName: IC50

INSERT INTO results (molecule, result) VALUES
  ('Cc1cc(Nc2nc(C3=CCCNC3)cn3c(-c4cnn(C)c4)cnc23)sc1S(=O)(=O)NC1CC1 [drawing 1473]', '3.21 µM'),
  ('Cn1cc(-c2cnc3c(Nc4sncc4C(C)(C)C)nc(CCN)cn23)cn1', '14.1 µM'),
  ('CCN(CC)S(=O)(=O)c1sc(Nc2nc(C3=CCCNC3)cn3c(-c4cnn(C)c4)cnc23)cc1C', '18.3 µM'),
  ('Cn1cc(-c2cnc3c(Nc4ccc(-n5ccnc5)cc4)nc(C4=CCCNC4)cn23)cn1 [drawing 1440]', '12.5 µM'),
  ('CNCCCc1cn2c(-c3cnn(C)c3)cnc2c(Nc2sncc2C)n1', '5.77 µM');

----------
- targetOrTestSystem: Cyclin E/CDK2 (Homo sapiens, UniProt P24941)
- Construct: made in house; host or cells: SF9 cells (baculovirus co-infection)
- methodNotes: CDK2 Assay (Cyclin E/CDK2 in vitro kinase assay)
- Format: biochemical
- conditionLabel: read-out: CDK2 IC50
measurementName: IC50 (µM)

INSERT INTO assay_data (molecule, targetortestsystem, measurementname, unitlabel, measurednumber) VALUES
  ('Cc1cc(Nc2nc(C3=CCCNC3)cn3c(-c4cnn(C)c4)cnc23)sc1C(=O)N(C)C', 'Cyclin E/CDK2 (Homo sapiens, UniProt P24941)', 'IC50', 'µM', 24.1),
  ('Cc1cc(Nc2nc(CCN)cn3c(-c4cnn(C)c4)cnc23)sc1C(N)=O', 'Cyclin E/CDK2 (Homo sapiens, UniProt P24941)', 'IC50', 'µM', 17.9),
  ('Cn1cc(-c2cnc3c(Nc4ccc(-n5ccnc5)cc4)nc(C4=CCCNC4)cn23)cn1 [drawing 1445]', 'Cyclin E/CDK2 (Homo sapiens, UniProt P24941)', 'IC50', 'µM', 12.5),
  ('Cc1cc(Nc2nc(C3=CCCNC3)cn3c(-c4cnn(C)c4)cnc23)sc1S(=O)(=O)N(C)C', 'Cyclin E/CDK2 (Homo sapiens, UniProt P24941)', 'IC50', 'µM', 5.2),
  ('Cc1ncc(Nc2nc(C3=CCCNC3)cn3c(-c4cnn(C)c4)cnc23)s1', 'Cyclin E/CDK2 (Homo sapiens, UniProt P24941)', 'IC50', 'µM', 4.63),
  ('CNCCc1cn2c(-c3cnn(C)c3)cnc2c(Nc2cc(C)ns2)n1', 'Cyclin E/CDK2 (Homo sapiens, UniProt P24941)', 'IC50', 'µM', 11.4),
  ('Cc1cc(Nc2nc(C3=CCCNC3)cn3c(-c4cnn(C)c4)cnc23)sc1C(N)=O', 'Cyclin E/CDK2 (Homo sapiens, UniProt P24941)', 'IC50', 'µM', 16.2),
  ('Cn1cc(-c2cnc3c(Nc4sncc4C(C)(C)C)nc(C4=CCCNC4)cn23)cn1', 'Cyclin E/CDK2 (Homo sapiens, UniProt P24941)', 'IC50', 'µM', 13.7),
  ('Cc1cc(Nc2nc(C3=CCCNC3)cn3c(-c4cnn(C)c4)cnc23)sc1S(=O)(=O)N1CCOCC1', 'Cyclin E/CDK2 (Homo sapiens, UniProt P24941)', 'IC50', 'µM', 5.95),
  ('Cc1cc(Nc2nc(CCN)cn3c(-c4cnn(C)c4)cnc23)sn1', 'Cyclin E/CDK2 (Homo sapiens, UniProt P24941)', 'IC50', 'µM', 5.94),
  ('Cn1cc(-c2cnc3c(Nc4sncc4C4CCCNC4)nccn23)cn1 (stereo not shown)', 'Cyclin E/CDK2 (Homo sapiens, UniProt P24941)', 'IC50', 'µM', 21.8),
  ('Cc1cc(Nc2nc(C3=CCCNC3)cn3c(-c4cnn(C)c4)cnc23)sc1S(=O)(=O)NC1CC1 [drawing 1469]', 'Cyclin E/CDK2 (Homo sapiens, UniProt P24941)', 'IC50', 'µM', 1.58),
  ('Cc1cc(Nc2nc(C3=CCCNC3)cn3c(-c4cnn(C)c4)cnc23)sc1C(=O)NC1CCN(S(C)(=O)=O)CC1', 'Cyclin E/CDK2 (Homo sapiens, UniProt P24941)', 'IC50', 'µM', 41),
  ('Cn1cc(-c2cnc3c(Nc4cc(C5CCNCC5)ns4)nccn23)cn1', 'Cyclin E/CDK2 (Homo sapiens, UniProt P24941)', 'IC50', 'µM', 18.1),
  ('CC(C)c1cnsc1Nc1nc(C2=CCCNC2)cn2c(-c3cnn(C)c3)cnc12', 'Cyclin E/CDK2 (Homo sapiens, UniProt P24941)', 'IC50', 'µM', 4.21),
  ('Cc1cc(Nc2nc(C3=CCCNC3)cn3c(-c4cnn(C)c4)cnc23)sc1S(=O)(=O)C(C)C', 'Cyclin E/CDK2 (Homo sapiens, UniProt P24941)', 'IC50', 'µM', 4.79),
  ('Cc1cc(Nc2nc(C3=CCCNC3)cn3c(-c4cnn(C)c4)cnc23)sn1', 'Cyclin E/CDK2 (Homo sapiens, UniProt P24941)', 'IC50', 'µM', 11),
  ('Cc1cc(Nc2nc(C3=CCCNC3)cn3c(-c4cnn(C)c4)cnc23)sc1S(=O)(=O)N1CCCC1', 'Cyclin E/CDK2 (Homo sapiens, UniProt P24941)', 'IC50', 'µM', 5.17),
  ('Cc1cc(Nc2nc(C3=CCCNC3)cn3c(-c4cnn(C)c4)cnc23)sc1S(=O)(=O)NCCO', 'Cyclin E/CDK2 (Homo sapiens, UniProt P24941)', 'IC50', 'µM', 4.68);
